Listed below: growth values for each entry.
Test system: SK-OV-3 ovarian
protocol.description: NCI-60 one-dose screen, 48 h (100 = growth as untreated, 0 = no growth, -100 = all killed)
conditions.used: 10 µM unless noted
About 83,000 compounds went through this panel and 20% of them were active in at least one assay; those are over-represented in the sample as a whole. The source made the active and inactive calls. Rule for the calls: active = growth percent below 10; inactive = the rest.

COc1ccc(/C=C2\CCCC3=C2NC(C)=NC3c2ccc(OC)c(OC)c2)cc1OC (stereo not given)
6.97% (active)
CCNc1nc(N2CC(=O)Nc3cc(OC)ccc32)c2ccccc2n1
27.4% (inactive)
COc1ccc(OC)c(NC(=O)c2cc(S(=O)(=O)N3CCc4ccccc43)ccc2OC)c1
92.6% (inactive)
O=c1[nH]c(CN2CCN(c3ccccc3F)CC2)nc2sc3c(c12)CCC3
96.5% (inactive)
CC(=O)c1cc(C(=O)c2ccc3c(c2)Sc2ccccc2N3)c2cc(C)ccn12
16.6% (inactive)
COc1ccc(C(=O)c2cc(OC)c(OC)c(OC)c2)cc1/C=C/C(=O)c1ccc(OC)c(OC)c1
38.4% (inactive)
CCCCNC(=O)NS(=O)(=O)c1ccc(N2N=C(c3ccc(C)cc3C)CC2c2ccc(OC)cc2)cc1 (stereo not given)
101% (inactive)
COc1cc(/C=C/C(=O)c2ccccc2O)ccc1OCCCOc1cc2c(cc1OC)C(=O)N1CCC[C@H]1C=N2
33.1% (inactive)
Cc1sc2nc(CSc3nnc(-c4ccco4)o3)[nH]c(=O)c2c1C
132% (inactive)
Cn1c(=O)c2c(nc3n2CCN(CCc2ccc(OCCN4CCOCC4)cc2)C3)n(C)c1=O
118% (inactive)

# growth of `CCCCCCc1nc2c(c(C)nn2-c2ccccc2)c2c1CCCCC2` = 95% (inactive)

Entry `CN1CCN(CCCOc2ccc3nc(Nc4ccc(C(F)(F)F)c(Cl)c4)ccc3c2)CC1` ; growth = 55.5% (inactive)

Please fill in: growth reported for `COC(=O)CCCCCCN=Cc1c(O)c(O)c(C(C)C)c2cc(C)c(-c3c(C)cc4c(C(C)C)c(O)c(O)c(C=NCCCCCCC(=O)OC)c4c3O)c(O)c12` = 64.8% (inactive)

Lookup result for CC(Cc1nnc(SCC(=O)Nc2ccc(I)cc2)n1N)c1ccccc1 (stereo not given) ; measured growth: 97.8% (inactive)

Notebook: `Nc1c(C(=O)Nc2cccc(Cl)c2Cl)sc2nc3c(cc12)C(=O)CCC3` , growth read as 24.2% (inactive)

Recorded result, `COc1ccc(-c2nc(-c3ccccc3)c(-c3ccccc3)n2C2CC2)cc1OC1CCCCC1` , growth: 89.4% (inactive)

Lab note: `Cc1cc(C)c2c(=O)[nH]c(SCC(=O)Nc3cccc(S(=O)(=O)N(C)C)c3)nc2n1` gave growth of 103% (inactive)

Input `COc1cc(-c2csc(NC(=O)c3cc(C(F)(F)F)cc(C(F)(F)F)c3)n2)cc(OC)c1OC` . Output growth: 35.4% (inactive)

Record `COc1ccc(/C(=N\O)c2cc(OC)c(OC)c(OC)c2)c(OC)c1N` , field growth: 43% (inactive)

`CCNCc1ccncc1` has a reported growth of 94.7% (inactive)
